# system name: T1, PUF4 RNA-binding domain (Saccharomyces cerevisiae, UniProt P25339 537-888)
# T1 sequence: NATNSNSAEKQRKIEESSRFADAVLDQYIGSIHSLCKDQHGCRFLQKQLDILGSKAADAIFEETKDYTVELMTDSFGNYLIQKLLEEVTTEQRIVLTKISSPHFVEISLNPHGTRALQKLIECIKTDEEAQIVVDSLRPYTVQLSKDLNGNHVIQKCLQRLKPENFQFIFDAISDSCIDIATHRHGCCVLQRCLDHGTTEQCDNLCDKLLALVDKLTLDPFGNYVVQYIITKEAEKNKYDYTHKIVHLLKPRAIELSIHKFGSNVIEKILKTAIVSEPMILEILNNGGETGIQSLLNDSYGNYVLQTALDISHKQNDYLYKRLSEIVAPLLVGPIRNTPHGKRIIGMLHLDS
# experiment summary: Mg; RNA-MaP; 20 mM Na-HEPES pH 7.4, 30 mM KOAc, 0.75 mM MgCl2, 0.1% Tween-20, 5% glycerol, 0.1 mg/mL BSA, 2 mM DTT; 25 C; 0.0125-409.6 nM protein
# test conditions: tags: N-His6-TEV cleaved; C-SNAP kept, Cy3B-labelled; label: tethered on chip by stalled RNA polymerase
Please provide measured log10 Kd for the entries that follow.
The base-10 logarithm of Kd, taken with Kd in nM, is what appears here.

Ic_S4_P4E.1_K4.1_C4.1_H4.1_A4.1_[T7G]_F4.1_[T8C]_[A9T]_T4.1 (ssRNA) RNA: UUUGACAACUGAUCGUUCUUUCUUGUAUAGCUUUCUUUCUCGAUCAGUUGUCUUU | 1.69
UCUCUUUGUAUUUGCUUCUCUU (ssRNA) [Ic_S1_P5E.1_K5.1_C5.1_H5.1_A5.1_[A7T]_F5.1_[T8G]_[T9C]_[A10T]_T5.1] | 2.51
Id_ii_S2_P4E.2_K4.1_C4.2_[C-2A]_[T-1C]_H4.1_A4.1_F4.1_T4.2_[G10T]_[T11G] (ssRNA) RNA: UUUGAUUAAUAUGAUAUCGUUCUUUCUACUGUAUAUUAUGUUCUUUCUCGAUAUCAUAUUAAUCUUU | 0.29
Id_ii_S4_P3E.3_K3.2_C3.2_[C-2A]_[T-1A]_H3.2_A3.1_F3.1_T3.2_[T9A] (ssRNA) RNA: UUUGACAACUGAUCGUUCUUUCUAAUAUAUAUAAAUUCUUUCUCGAUCAGUUGUCUUU | 2.86
Ic_S2_P4E.1_K4.1_C4.1_H4.1_A4.1_[T5C]_[A6C]_F4.1_[T8G]_[A9T]_T4.1 (ssRNA) RNA: UUUGAUUAAUAUGAUAUCGUUCUUUCUUGUACCUGUUUCUUUCUCGAUAUCAUAUUAAUCUUU | 1.45
ACAAACCGUAGAUUAACAAAC (ssRNA) [Ib_S3_P4E.1_K4.1_C4.1_H4.1_[T1C]_A4.1_[T5G]_F4.1_T4.1] | 2.66
UCUCUUUAUAUAUUAUUACCUCUCUU (ssRNA) [Id_ii_S1_P5E.3_K5.2_C5.2_[C-2T]_[T-1A]_H5.2_A5.1_F5.1_T5.2_[T11C]_[A12C]] | 1.15
Id_ii_S2_P3E.4_K3.3_C3.2_[C-2T]_H3.3_A3.1_F3.1_T3.2_[A10C] (ssRNA) RNA: UUUGAUUAAUAUGAUAUCGUUCUUUCUUUACACUAUAUCUUCUUUCUCGAUAUCAUAUUAAUCUUU | 2.68
Id_ii_S2_P3E.2_K3.1_C3.2_[C-2G]_[T-1G]_H3.1_A3.1_F3.1_T3.2_[A10G] (ssRNA) RNA: UUUGAUUAAUAUGAUAUCGUUCUUUCUGGUGUAUAUAUGUUCUUUCUCGAUAUCAUAUUAAUCUUU | 0.71
UCUCUUUGUAUUCUCUCAUUAUCUCUU (ssRNA) [Ie_S1_P5E.1_K5.1_C5.1_H5.1_A5.1_[+6CTCTC]_F5.1_T5.1] | 1.93

Value sought for every listed binder: log10 Kd.
1. Id_ii_S2_P5E.3_K5.2_C5.2_[T-1A]_H5.2_A5.1_F5.1_T5.2_[T11G]_[A12C] (ssRNA) RNA: UUUGAUUAAUAUGAUAUCGUUCUUUCUCAUAUAUUAUUAGCUUCUUUCUCGAUAUCAUAUUAAUCUUU
2. UCUCUUUGUAUUGCCAUCUCUU (ssRNA) [Ic_S1_P5E.1_K5.1_C5.1_H5.1_A5.1_[A7G]_F5.1_[T8C]_[T9C]_T5.1]
3. Id_ii_S2_P5E.3_K5.2_C5.2_[C-2G]_H5.2_A5.1_F5.1_T5.2_[A12T] (ssRNA) RNA: UUUGAUUAAUAUGAUAUCGUUCUUUCUGUUAUAUUAUUAUUUUCUUUCUCGAUAUCAUAUUAAUCUUU
4. Ie_S2_P4E.1_K4.1_C4.1_H4.1_A4.1_F4.1_[+8TCC]_T4.1 (ssRNA) RNA: UUUGAUUAAUAUGAUAUCGUUCUUUCUUGUAUAUUUCCAUUCUUUCUCGAUAUCAUAUUAAUCUUU
5. Ic_S4_P4E.1_K4.1_C4.1_H4.1_A4.1_[T5G]_[A6C]_[T7C]_F4.1_[T8C]_[A9G]_T4.1 (ssRNA) RNA: UUUGACAACUGAUCGUUCUUUCUUGUAGCCCGUUCUUUCUCGAUCAGUUGUCUUU
6. ACAAACUGUAUAUUCUCUAACAAAC (ssRNA) [Ie_S3_P4E.1_K4.1_C4.1_H4.1_A4.1_[+7TCTC]_F4.1_T4.1]

Ans.
[2.05, 2.98, 1.07, 0.55, 3.16, 0.83]

Value sought for every listed binder: log10 Kd.
1. UCUCUUUUUAUAUAUAUGUCUCUU (ssRNA) [Id_ii_S1_P3E.3_K3.2_C3.2_[C-2T]_H3.2_A3.1_F3.1_T3.2_[A10G]]
2. Id_ii_S2_P5E.3_K5.2_C5.2_H5.2_A5.1_F5.1_T5.2_[T11C]_[A12T] (ssRNA) RNA: UUUGAUUAAUAUGAUAUCGUUCUUUCUCUUAUAUUAUUACUUUCUUUCUCGAUAUCAUAUUAAUCUUU

Ans.
1: 3.03; 2: 1.89

Value sought for every listed binder: log10 Kd.
1. Id_i_S4_P3E.7_K3.3_C3.3_[T-3C]_[C-2T]_[T-1A]_H3.3_A3.1_F3.1_T3.2 (ssRNA) RNA: UUUGACAACUGAUCGUUCUUUCUCUAACACUAUAUAUUCUUUCUCGAUCAGUUGUCUUU
2. Id_ii_S2_P5E.2_K5.1_C5.2_H5.1_A5.1_F5.1_T5.2_[A12T] (ssRNA) RNA: UUUGAUUAAUAUGAUAUCGUUCUUUCUCUUGUAUUAUUAUUUUCUUUCUCGAUAUCAUAUUAAUCUUU

Ans.
1: 2.05; 2: 0.08
